assayed target: human recombinant LSD1 protein (Homo sapiens (Human))
test name: In vitro enzyme inhibition activity assay - LSD1 (Lance Ultra TR-FRET)
experimental conditions: all compounds tested in the form of hydrochloride
observable: IC50

Look over these answered cases.
molecule=N#Cc1ccc(-c2nc(NC[C@H]3CCNC3)nc3ccc(-c4ccccc4OC(F)(F)F)cc23)cc1F result="0.03 to 0.3 µM"
molecule=N#Cc1ccc(-c2nc(N3CCC(N)CC3)nc3ccc(-c4c(Cl)cccc4Cl)cc23)cc1F result="≤ 0.03 µM"
molecule="N#Cc1ccc(-c2nc(N3CCC4NCCC4C3)nc3ccc(-c4c(F)cccc4C(F)(F)F)cc23)cc1F (stereo not shown)" result="≤ 0.03 µM"

Now look at this entry.
Query for human recombinant LSD1 protein (Homo sapiens (Human)): what IC50 does the record show for `N#Cc1ccc(-c2nc(N3CCC(N)CC3)nc3cc(F)c(-c4ccccc4C(F)(F)F)cc23)cc1F` ?
0.03 to 0.3 µM

---

Form field: pIC50 (one value per entry).
assayed target: human recombinant LSD1 protein (Homo sapiens (Human), UniProt O60341)
test name: In vitro enzyme inhibition activity assay - LSD1 (Lance Ultra TR-FRET)
experimental conditions: all compounds tested in the form of hydrochloride
pIC50: −log10 of the molar value.

Look over these answered cases.
molecule=Cn1ncc2cc(-c3ccc4nc(N5CCC(N)CC5)nc(-c5ccc(C#N)c(F)c5)c4c3)ccc21 result="6.52 to 7.52"
molecule=Cc1cccc(F)c1-c1ccc2nc(NC[C@H]3CCNC3)nc(-c3ccc(C#N)c(F)c3)c2c1 result="≥ 7.52"
molecule=Cc1nn(C)c(C)c1-c1ccc2nc(NC[C@H]3CCNC3)nc(-c3ccc(C#N)c(F)c3)c2c1 result="6.52 to 7.52"
molecule="COc1ccc(-c2ccc3nc(NCC4CCNC4)nc(-c4ccc(C#N)c(F)c4)c3c2)cc1F (stereo not drawn)" result="6.52 to 7.52"
molecule=N#Cc1ccc(-c2nc(N3CCCC[C@H](N)C3)nc3ccc(-c4c(F)cccc4C(F)(F)F)cc23)cc1F result="≥ 7.52"
molecule="Cc1ccccc1-c1ccc2nc(NCC3CCNC3)nc(-c3ccc(C#N)c(F)c3)c2c1 (stereo not drawn)" result="≥ 7.52"
molecule=N#Cc1ccc(-c2nc(N3CCC(N)CC3)nc3ccc(-c4ccccc4OC(F)(F)F)cc23)cc1F result="6.52 to 7.52"
molecule=Cc1cccc(-c2ccc3nc(NC[C@H]4CCNC4)nc(-c4ccc(C#N)c(F)c4)c3c2)c1C(F)(F)F result="6.52 to 7.52"
molecule=Cn1ncc2c(-c3ccc4nc(N5CCC(N)CC5)nc(-c5ccc(C#N)c(F)c5)c4c3)cccc21 result="6.52 to 7.52"
molecule=Cc1c(F)cccc1-c1ccc2nc(NC[C@H]3CCNC3)nc(-c3ccc(C#N)c(F)c3)c2c1 result="6.52 to 7.52"

What value of measured pIC50 is listed for `N#Cc1ccc(-c2nc(NC[C@H]3CCNC3)nc3ccc(-c4cccc(F)c4F)cc23)cc1F` ?
6.52 to 7.52

What value of measured pIC50 is listed for `N#Cc1ccc(-c2nc(N3CC[C@@H](N)C3)nc3ccc(-c4c(F)cccc4C(F)(F)F)cc23)cc1F` ?
≥ 7.52

What value of measured pIC50 is listed for `N#Cc1ccc(-c2nc(N3CCC(N)CC3)nc3c(F)cc(-c4c(F)cccc4C(F)(F)F)cc23)cc1F` ?
≥ 7.52

What value of measured pIC50 is listed for `Cc1cccc(C)c1-c1ccc2nc(NC[C@H]3CCNC3)nc(-c3ccc(C#N)c(F)c3)c2c1` ?
≥ 7.52

What value of measured pIC50 is listed for `N#Cc1ccc(-c2nc(N3CC[C@@H](N)[C@H](F)C3)nc3ccc(-c4c(F)cccc4C(F)(F)F)cc23)cc1F` ?
6.52 to 7.52

What value of measured pIC50 is listed for `N#Cc1ccc(-c2nc(N3CCC(N)CC3)nc3ccc(-c4c(F)cccc4Cl)cc23)cc1F` ?
≥ 7.52

What value of measured pIC50 is listed for `N#Cc1ccc(-c2nc(N3CCC(N)CC3)nc3c(F)cc(-c4ccccc4C(F)(F)F)cc23)cc1F` ?
≥ 7.52

What value of measured pIC50 is listed for `N#Cc1ccc(-c2nc(NC[C@H]3CCNC3)nc3ccc(-c4c(F)cccc4Cl)cc23)cc1F` ?
≥ 7.52

What value of measured pIC50 is listed for `Cc1noc(C)c1-c1ccc2nc(N3CCC(N)CC3)nc(-c3ccc(C#N)c(F)c3)c2c1` ?
6.52 to 7.52

What value of measured pIC50 is listed for `N#Cc1ccc(-c2nc(N3CCC(N)CC3)nc3cc(F)c(-c4ccccc4F)cc23)cc1F` ?
≥ 7.52

What value of measured pIC50 is listed for `N#Cc1ccc(-c2nc(N3CCC(N)CC3)nc3c2CN(c2c(F)cccc2C(F)(F)F)CC3)cc1F` ?
6.52 to 7.52

---

assayed target: human recombinant LSD1 protein (Homo sapiens (Human))
test name: In vitro enzyme inhibition activity assay - LSD1 (Lance Ultra TR-FRET)
Assay type: biochemical
experimental conditions: all compounds tested in the form of hydrochloride
pIC50: −log10 of the molar value.
Form field: pIC50 (one value per entry).

cpd_smiles=N#Cc1ccc(-c2nc(NC[C@H]3CCNC3)nc3ccc(-c4cccc(O)c4F)cc23)cc1F result="6.52 to 7.52"
cpd_smiles=N#Cc1ccc(-c2nc(N3CCC[C@@H](N)C3)nc3ccc(-c4c(F)cccc4C(F)(F)F)cc23)cc1F result="≥ 7.52"
cpd_smiles=N#Cc1ccc(-c2nc(N3CCC(N)CC3)cc3ccc(-c4c(F)cccc4C(F)(F)F)cc23)cc1F result="≥ 7.52"
cpd_smiles=N#Cc1ccc(-c2nc(N3CCC(N)CC3)nc3ccc(-c4ccccc4C(F)(F)F)cc23)cc1F result="≥ 7.52"
cpd_smiles=Cc1cscc1-c1ccc2nc(NC[C@H]3CCNC3)nc(-c3ccc(C#N)c(F)c3)c2c1 result="6.52 to 7.52"
cpd_smiles=N#Cc1ccc(-c2nc(N3CCC(N)CC3)nc3c2CN(c2ccccc2C(F)(F)F)CC3)cc1F result="6.52 to 7.52"

What value of measured pIC50 is listed for `Cn1c(=O)c(-c2ccccc2C(F)(F)F)cc2c(-c3ccc(C#N)c(F)c3)nc(N3CCC(N)CC3)nc21` ?
≥ 7.52

---

assayed target: human recombinant LSD1 protein (Homo sapiens (Human), UniProt O60341)
test name: In vitro enzyme inhibition activity assay - LSD1 (Lance Ultra TR-FRET)
experimental conditions: all compounds tested in the form of hydrochloride
pIC50: −log10 of the molar value.
Form field: pIC50 (one value per entry).

What value of measured pIC50 is listed for N#Cc1ccc(-c2nc(N3CCCC(N)CC3)nc3ccc(-c4c(F)cccc4C(F)(F)F)cc23)cc1F (stereo not shown) ?
≥ 7.52

What value of measured pIC50 is listed for COC1=CC=C(c2c(-c3ccc(C#N)c(F)c3)nc(N3CCC(N)CC3)n(C)c2=O)CC1F (stereo not shown) [CC90011, reference compound] ?
≥ 7.52

---

assayed target: human recombinant LSD1 protein (Homo sapiens (Human), UniProt O60341)
test name: In vitro enzyme inhibition activity assay - LSD1 (Lance Ultra TR-FRET)
experimental conditions: all compounds tested in the form of hydrochloride
Form field: IC50 (one value per entry).

Look over these answered cases.
compound="N#Cc1ccc(-c2nc(N3CC[C@H](N)[C@@H](F)C3)nc3ccc(-c4c(F)cccc4C(F)(F)F)cc23)cc1F [Compound 85]" observable=IC50 result="0.03 to 0.3 µM"
compound="N#Cc1ccc(-c2nc(N3CCCC[C@@H](N)C3)nc3ccc(-c4c(F)cccc4C(F)(F)F)cc23)cc1F [Compound 87]" observable=IC50 result="≤ 0.03 µM"

What value of measured IC50 is listed for N#Cc1ccc(-c2nc(N3CCC(N)CC3)nc3ccc(-c4cccc(F)c4F)cc23)cc1F [Compound 17] ?
0.03 to 0.3 µM

What value of measured IC50 is listed for Cc1ccccc1-c1ccc2nc(NC[C@H]3CCNC3)nc(-c3ccc(C#N)c(F)c3)c2c1 [Compound 37] ?
0.03 to 0.3 µM

---

Form field: IC50 (one value per entry).
assayed target: human recombinant LSD1 protein (Homo sapiens (Human), UniProt O60341)
test name: In vitro enzyme inhibition activity assay - LSD1 (Lance Ultra TR-FRET)
experimental conditions: all compounds tested in the form of hydrochloride
Experimental: The purpose of this experiment was to test the in vitro inhibitory activity of the compounds against LSD1. […] After these operations, another 5 μL of assay mixture containing Eu-labeled H3K4me0 antibody and ULight-Streptavidin anti-biotin protein was added to the system, after which the fluorescence intensity of the components to be tested was detected by using Envision (PerkinElmer) in TR-FRET mode (excitation wavelength of 320 nm, emission wavelength of 620 nm). […]

Look over these answered cases.
molecule="CNC1CCN(c2nc(-c3ccc(C#N)c(F)c3)c3cc(-c4c(F)cccc4C(F)(F)F)ccc3n2)CC1 [Compound 66]" result="≤ 30 nM"
molecule="Cc1ccccc1-c1ccc2nc(NC[C@@H]3CCNC3)nc(-c3ccc(C#N)c(F)c3)c2c1 [Compound 38]" result="30 to 300 nM"
molecule="N#Cc1ccc(-c2nc(N3C4CCC3CC(N)C4)nc3ccc(-c4c(F)cccc4C(F)(F)F)cc23)cc1F (stereo not drawn) [Compound 69]" result="≤ 30 nM"

Now look at this entry.
Query for human recombinant LSD1 protein (Homo sapiens (Human), UniProt O60341): what IC50 does the record show for N#Cc1ccc(-c2nc(N3CCC(N)CC3)nc3ccc(-c4ccccc4Cl)cc23)cc1F [Compound 16] ?
≤ 30 nM
